Would you kindly list fb (%) for each of these compounds?
- experiment notes: plasma protein binding rate test, equilibrium dialysis (rat)
- Type: in vitro ADME, SD rat
- applied conditions: 1 µM, 6 hours, 37°C
Number only, in %; omit the unit.

Query :: Need fb (%) of Cc1cc(C[C@@H](NC(=O)N2CCC(c3cc4c([nH]c3=O)SCCC4)CC2)C(=O)N2CCN(C3CCN(C)CC3)CC2)cc2cn[nH]c12 , thanks.
Result :: 90.0

Query :: Entry [2H]C([2H])([2H])N1CCC(N2CCN(C(=O)[C@@H](Cc3cc(C)c4[nH]ncc4c3)NC(=O)N3CCC(c4cc5c([nH]c4=O)SCC5)CC3)CC2)CC1 : reported fb (%) = ?
Result :: 64.3

Query :: Any idea what its fb (%) is? The compound is Cc1cc(C[C@@H](NC(=O)N2CCC(c3cc4ccccc4[nH]c3=O)CC2)C(=O)N2CCN(C3CCN(C)CC3)CC2)cc2cn[nH]c12 [Zavegepant, zavegepant, reference compound]
Result :: 92.7

Query :: Query (compound): Cc1cc(C[C@@H](NC(=O)N2CCC(c3cc4c([nH]c3=O)SCC4)CC2)C(=O)N2CCN(C3CCN(C)CC3)CC2)cc2cn[nH]c12 ; field requested: fb (%)
Result :: 69.4

* * *

- experiment notes: plasma protein binding rate test, equilibrium dialysis (human)
- Format: in vitro ADME
- applied conditions: 1 µM, 6 hours, 37°C
Consider the following compounds; for each one, report its fb (%).

Query :: Query: fb (%); subject: [2H]C([2H])([2H])N1CCC(N2CCN(C(=O)[C@@H](Cc3cc(C)c4[nH]ncc4c3)NC(=O)N3CCC(c4cc5c([nH]c4=O)SCC5)CC3)CC2)CC1
Result :: 50.2%

Query :: Which fb (%) reading was recorded for the compound Cc1cc(C[C@@H](NC(=O)N2CCC(c3cc4ccccc4[nH]c3=O)CC2)C(=O)N2CCN(C3CCN(C)CC3)CC2)cc2cn[nH]c12 [Zavegepant, zavegepant, reference compound] ?
Result :: 82.0%

Query :: Data request, read-out fb (%), for Cc1cc(C[C@@H](NC(=O)N2CCC(c3cc4c([nH]c3=O)SCCC4)CC2)C(=O)N2CCN(C3CCN(C)CC3)CC2)cc2cn[nH]c12
Result :: 76.7%

Query :: Field request: fb (%) | item: Cc1cc(C[C@@H](NC(=O)N2CCC(c3cc4c([nH]c3=O)SCC4)CC2)C(=O)N2CCN(C3CCN(C)CC3)CC2)cc2cn[nH]c12
Result :: 64.1%

* * *

- experiment notes: in-vivo pharmacokinetic study on SD rats, intravenous and intranasal administration
- applied conditions: male, rat, plasma, other: intranasal, IN@2 mg/kg, read-out: Concentration to peak Cmax
I'd be grateful if you could share measured Cmax for these entries.
Please answer using the number first and the unit second.

Query :: Entry Cc1cc(C[C@@H](NC(=O)N2CCC(c3cc4ccccc4[nH]c3=O)CC2)C(=O)N2CCN(C3CCN(C)CC3)CC2)cc2cn[nH]c12 [Zavegepant, zavegepant, reference compound] has what Cmax?
Result :: 645 ng/mL

Query :: Which Cmax value belongs to Cc1cc(C[C@@H](NC(=O)N2CCC(c3cc4c([nH]c3=O)SCC4)CC2)C(=O)N2CCN(C3CCN(C)CC3)CC2)cc2cn[nH]c12 [Example 8] ?
Result :: 204 ng/mL

These measurements were taken from patent EP4703362A1.
